Target: UniProt Q7T2L8
Sequence (whole entry): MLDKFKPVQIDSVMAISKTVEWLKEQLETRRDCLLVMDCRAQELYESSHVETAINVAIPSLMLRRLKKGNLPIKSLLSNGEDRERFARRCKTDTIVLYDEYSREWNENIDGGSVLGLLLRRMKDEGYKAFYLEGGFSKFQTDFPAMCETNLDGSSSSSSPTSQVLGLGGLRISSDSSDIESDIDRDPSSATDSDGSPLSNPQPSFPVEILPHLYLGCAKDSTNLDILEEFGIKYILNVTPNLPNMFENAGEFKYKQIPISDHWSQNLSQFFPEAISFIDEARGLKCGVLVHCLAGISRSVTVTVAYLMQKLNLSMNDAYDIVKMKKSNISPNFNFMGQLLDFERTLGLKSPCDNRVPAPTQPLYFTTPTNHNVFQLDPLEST
Experiment: Inhibition of Dusp6 in (Tg(Dusp6:d2EGFP)pt6) transgenic Zebrafish assessed as activation of FGF signaling at 20 uM treated at 24 hours post fertilization and measured after 6 hrs post dose by d2EGFP fluorescence based assay relative to BCI
Design: scale not given: the % may be the effect or the level left
Calls of active or inactive are those of the source. The calls are words filed in the database; no cut-off is given here.
observed-property: Activity

# count of solved cases: 4
1. O=C1/C(=C/c2ccccc2)C(NC2CCCCC2)c2ccccc21 (stereo in doubt; form 2) = 82%
2. N#Cc1ccc2c(c1)C(NC1CCCCC1)/C(=C\c1ccccc1)C2=O (stereo not given) = inactive
3. O=C1/C(=C/c2ccccc2)C(NC2CCCCC2)c2ccccc21 (stereo in doubt; form 1) = 100%
4. O=C1N[C@H]2[C@H](CS[C@H]2CCCCC(=O)N[C@H]2CC[C@H](NC3/C(=C\c4ccccc4)C(=O)c4ccccc43)CC2)N1 (stereo not given in full) = inactive

Now consider a different molecule.
Q: Record request: Activity value, item CC(C)(C)OC(=O)N[C@H]1CC[C@H](NC2/C(=C\c3ccccc3)C(=O)c3ccccc32)CC1 (stereo not given in full)
Ans: inactive
